Listed here: items and their measured inhibition.
# SYSTEM_UNDER_TEST: UniProt P41145
# EXPERIMENTAL_CONDITIONS: at 1 µM
# Description: Displacement of [3H]diprenorphine from human KOR expressed in African green monkey COS1 cell membranes at 1 uM incubated for 1 hr by scintillation counting method

- SMILES_STRING: "COC(=O)N1CC[C@]23c4c5ccc(OC)c4O[C@H]2[C@@H](OC)[C@H](O)C(=O)[C@H]3[C@H]1C5"
  RESULT_UNIT: "%"
  inhibition: 5
- SMILES_STRING: "COC(=O)N1CC[C@]23c4c5ccc(OC(C)=O)c4O[C@H]2[C@@H](OC(C)=O)[C@H](O)C(=O)[C@H]3[C@H]1C5"
  RESULT_UNIT: "%"
  inhibition: 4
- SMILES_STRING: "COC(=O)N1CC[C@]23c4c5ccc(OC(C)=O)c4O[C@H]2[C@@H](OC(C)=O)C=C[C@H]3[C@H]1C5"
  RESULT_UNIT: "%"
  inhibition: 0
- SMILES_STRING: "COC(=O)N1CC[C@]23c4c5ccc(O)c4O[C@H]2[C@@H](O)[C@H](O)C(=O)[C@H]3[C@H]1C5"
  RESULT_UNIT: "%"
  inhibition: 6
- SMILES_STRING: "COC(=O)N1CC[C@]23c4c5ccc(OC)c4O[C@H]2[C@@H](OC)C=C[C@H]3[C@H]1C5"
  RESULT_UNIT: "%"
  inhibition: 6
- SMILES_STRING: "COC(=O)N1CC[C@]23c4c5ccc(O)c4O[C@H]2[C@@H](O)C=C[C@H]3[C@H]1C5"
  RESULT_UNIT: "%"
  inhibition: 7

====

# SYSTEM_UNDER_TEST: Kappa-type opioid receptor (Homo sapiens) (UniProt P41145)
# Sequence (P41145 whole entry): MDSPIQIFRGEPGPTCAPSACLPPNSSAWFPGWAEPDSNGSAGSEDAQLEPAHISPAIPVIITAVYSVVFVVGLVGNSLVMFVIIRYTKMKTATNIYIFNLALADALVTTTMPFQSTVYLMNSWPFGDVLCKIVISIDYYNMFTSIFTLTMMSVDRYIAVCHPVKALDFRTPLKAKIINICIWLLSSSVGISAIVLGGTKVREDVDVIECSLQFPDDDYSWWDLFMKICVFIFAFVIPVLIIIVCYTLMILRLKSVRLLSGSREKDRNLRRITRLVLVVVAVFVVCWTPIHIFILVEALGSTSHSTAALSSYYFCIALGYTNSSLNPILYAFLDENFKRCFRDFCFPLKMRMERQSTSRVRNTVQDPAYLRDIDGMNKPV
# EXPERIMENTAL_CONDITIONS: at 10 µM
# Description: Displacement of [3H]diprenorphine from human KOR expressed in African green monkey COS1 cell membranes at 10 uM incubated for 1 hr by scintillation counting method

- SMILES_STRING: "COC(=O)N1CC[C@]23c4c5ccc(OC)c4O[C@H]2[C@@H](OC)C=C[C@H]3[C@H]1C5"
  inhibition: "2%"
- SMILES_STRING: "COC(=O)N1CC[C@]23c4c5ccc(O)c4O[C@H]2[C@@H](O)C=C[C@H]3[C@H]1C5"
  inhibition: "27%"
- SMILES_STRING: "COC(=O)N1CC[C@]23c4c5ccc(OC(C)=O)c4O[C@H]2[C@@H](OC(C)=O)[C@H](O)C(=O)[C@H]3[C@H]1C5"
  inhibition: "8%"
- SMILES_STRING: "COC(=O)N1CC[C@]23c4c5ccc(O)c4O[C@H]2[C@@H](O)[C@H](O)C(=O)[C@H]3[C@H]1C5"
  inhibition: "21%"
- SMILES_STRING: "COC(=O)N1CC[C@]23c4c5ccc(OC)c4O[C@H]2[C@@H](OC)[C@H](O)C(=O)[C@H]3[C@H]1C5"
  inhibition: "0%"
- SMILES_STRING: "COC(=O)N1CC[C@]23c4c5ccc(OC(C)=O)c4O[C@H]2[C@@H](OC(C)=O)C=C[C@H]3[C@H]1C5"
  inhibition: "1%"

====

# SYSTEM_UNDER_TEST: Delta-type opioid receptor (Homo sapiens, UniProt P41143)
# Sequence (P41143 whole entry): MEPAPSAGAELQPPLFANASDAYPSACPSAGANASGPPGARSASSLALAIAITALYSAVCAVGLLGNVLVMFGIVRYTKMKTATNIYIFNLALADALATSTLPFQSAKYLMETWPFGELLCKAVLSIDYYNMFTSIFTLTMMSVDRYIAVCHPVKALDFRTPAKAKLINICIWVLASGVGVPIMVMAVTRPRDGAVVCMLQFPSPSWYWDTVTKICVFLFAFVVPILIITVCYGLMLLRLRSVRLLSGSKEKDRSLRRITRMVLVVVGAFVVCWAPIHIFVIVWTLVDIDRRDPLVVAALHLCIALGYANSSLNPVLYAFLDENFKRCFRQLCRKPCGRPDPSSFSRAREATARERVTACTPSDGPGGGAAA
# TEST_DETAILS: Displacement of [3H]diprenorphine from human DOR expressed in African green monkey COS1 cell membranes at 10 uM incubated for 1 hr by scintillation counting method
inhibition by entry:
MEASURE: inhibition (%)

- SMILES_STRING: "COC(=O)N1CC[C@]23c4c5ccc(OC)c4O[C@H]2[C@@H](OC)C=C[C@H]3[C@H]1C5"
  TEST_VALUE: 10
- SMILES_STRING: "CN1CC[C@]23c4c5ccc(O)c4O[C@H]2[C@@H](O)C=C[C@H]3[C@H]1C5"
  TEST_VALUE: 63
- SMILES_STRING: "COC(=O)N1CC[C@]23c4c5ccc(OC(C)=O)c4O[C@H]2[C@@H](OC(C)=O)C=C[C@H]3[C@H]1C5"
  TEST_VALUE: 9
- SMILES_STRING: "Oc1ccc2c3c1O[C@H]1c4[nH]c5ccccc5c4C[C@@]4(O)[C@@H](C2)N(CC2CC2)CC[C@]314"
  TEST_VALUE: 94

====

# SYSTEM_UNDER_TEST: Delta-type opioid receptor (Homo sapiens)
# TEST_DETAILS: Displacement of [3H]diprenorphine from human DOR expressed in African green monkey COS1 cell membranes at 10 uM incubated for 1 hr by scintillation counting method

- SMILES_STRING: "COC(=O)N1CC[C@]23c4c5ccc(O)c4O[C@H]2[C@@H](O)[C@H](O)C(=O)[C@H]3[C@H]1C5"
  SYSTEM_UNDER_TEST: "Delta-type opioid receptor (Homo sapiens)"
  inhibition: "63%"
- SMILES_STRING: "COC(=O)N1CC[C@]23c4c5ccc(OC)c4O[C@H]2[C@@H](OC)[C@H](O)C(=O)[C@H]3[C@H]1C5"
  SYSTEM_UNDER_TEST: "Delta-type opioid receptor (Homo sapiens)"
  inhibition: "19%"
- SMILES_STRING: "COC(=O)N1CC[C@]23c4c5ccc(OC(C)=O)c4O[C@H]2[C@@H](OC(C)=O)[C@H](O)C(=O)[C@H]3[C@H]1C5"
  SYSTEM_UNDER_TEST: "Delta-type opioid receptor (Homo sapiens)"
  inhibition: "51%"
- SMILES_STRING: "COC(=O)N1CC[C@]23c4c5ccc(O)c4O[C@H]2[C@@H](O)C=C[C@H]3[C@H]1C5"
  SYSTEM_UNDER_TEST: "Delta-type opioid receptor (Homo sapiens)"
  inhibition: "59%"

====

# SYSTEM_UNDER_TEST: Mu-type opioid receptor (Homo sapiens, UniProt P35372)
# Sequence (P35372 whole entry): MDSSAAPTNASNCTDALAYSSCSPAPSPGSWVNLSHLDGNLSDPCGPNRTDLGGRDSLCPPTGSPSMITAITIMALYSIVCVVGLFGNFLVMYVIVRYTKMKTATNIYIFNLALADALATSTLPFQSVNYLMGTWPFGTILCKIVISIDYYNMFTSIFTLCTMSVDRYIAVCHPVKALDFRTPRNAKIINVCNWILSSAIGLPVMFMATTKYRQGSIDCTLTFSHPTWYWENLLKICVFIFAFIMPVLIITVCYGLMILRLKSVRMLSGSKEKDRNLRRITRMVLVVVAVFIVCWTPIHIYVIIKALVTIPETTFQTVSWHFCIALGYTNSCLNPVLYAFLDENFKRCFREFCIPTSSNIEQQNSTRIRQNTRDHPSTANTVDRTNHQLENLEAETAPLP
# EXPERIMENTAL_CONDITIONS: at 1 µM
# Description: Displacement of [3H]diprenorphine from human MOR expressed in African green monkey COS1 cell membranes at 1 uM incubated for 1 hr by scintillation counting method
Quick reference for inhibition among some molecules

- SMILES_STRING: "COC(=O)N1CC[C@]23c4c5ccc(OC(C)=O)c4O[C@H]2[C@@H](OC(C)=O)C=C[C@H]3[C@H]1C5"
  RESULT_UNIT: "%"
  inhibition: 1
- SMILES_STRING: "COC(=O)N1CC[C@]23c4c5ccc(O)c4O[C@H]2[C@@H](O)[C@H](O)C(=O)[C@H]3[C@H]1C5"
  RESULT_UNIT: "%"
  inhibition: 8
- SMILES_STRING: "COC(=O)N1CC[C@]23c4c5ccc(OC(C)=O)c4O[C@H]2[C@@H](OC(C)=O)[C@H](O)C(=O)[C@H]3[C@H]1C5"
  RESULT_UNIT: "%"
  inhibition: 7
- SMILES_STRING: "C[C@@H](NC(=O)[C@@H](N)Cc1ccc(O)cc1)C(=O)NCC(=O)N(C)[C@@H](Cc1ccccc1)C(=O)NCCO"
  RESULT_UNIT: "%"
  inhibition: 67

====

# SYSTEM_UNDER_TEST: UniProt:P35372
# EXPERIMENTAL_CONDITIONS: at 10 µM
# Description: Displacement of [3H]diprenorphine from human MOR expressed in African green monkey COS1 cell membranes at 10 uM incubated for 1 hr by scintillation counting method
Threshold check on inhibition: at or above 10% gives condition met, strictly below gives condition not met.

- SMILES_STRING: "COC(=O)N1CC[C@]23c4c5ccc(O)c4O[C@H]2[C@@H](O)C=C[C@H]3[C@H]1C5"
  ASSIGNED_LABEL: "condition met"
- SMILES_STRING: "COC(=O)N1CC[C@]23c4c5ccc(OC)c4O[C@H]2[C@@H](OC)[C@H](O)C(=O)[C@H]3[C@H]1C5"
  ASSIGNED_LABEL: "condition not met"
- SMILES_STRING: "C[C@@H](NC(=O)[C@@H](N)Cc1ccc(O)cc1)C(=O)NCC(=O)N(C)[C@@H](Cc1ccccc1)C(=O)NCCO"
  ASSIGNED_LABEL: "condition met"
- SMILES_STRING: "COC(=O)N1CC[C@]23c4c5ccc(O)c4O[C@H]2[C@@H](O)[C@H](O)C(=O)[C@H]3[C@H]1C5"
  ASSIGNED_LABEL: "condition met"
- SMILES_STRING: "COC(=O)N1CC[C@]23c4c5ccc(OC(C)=O)c4O[C@H]2[C@@H](OC(C)=O)C=C[C@H]3[C@H]1C5"
  ASSIGNED_LABEL: "condition not met"
- SMILES_STRING: "COC(=O)N1CC[C@]23c4c5ccc(OC)c4O[C@H]2[C@@H](OC)C=C[C@H]3[C@H]1C5"
  ASSIGNED_LABEL: "condition met"
- SMILES_STRING: "COC(=O)N1CC[C@]23c4c5ccc(OC(C)=O)c4O[C@H]2[C@@H](OC(C)=O)[C@H](O)C(=O)[C@H]3[C@H]1C5"
  ASSIGNED_LABEL: "condition not met"

====

# SYSTEM_UNDER_TEST: Delta-type opioid receptor (Homo sapiens, UniProt P41143)
# TEST_DETAILS: Displacement of [3H]diprenorphine from human DOR expressed in African green monkey COS1 cell membranes at 1 uM incubated for 1 hr by scintillation counting method
Tick Met if inhibition is 20% or greater. Tick Not met if inhibition is less than 20%.

- SMILES_STRING: "COC(=O)N1CC[C@]23c4c5ccc(OC)c4O[C@H]2[C@@H](OC)[C@H](O)C(=O)[C@H]3[C@H]1C5"
  ASSIGNED_LABEL: "Not met"
- SMILES_STRING: "COC(=O)N1CC[C@]23c4c5ccc(O)c4O[C@H]2[C@@H](O)[C@H](O)C(=O)[C@H]3[C@H]1C5"
  ASSIGNED_LABEL: "Met"
- SMILES_STRING: "CN1CC[C@]23c4c5ccc(O)c4O[C@H]2[C@@H](O)C=C[C@H]3[C@H]1C5"
  ASSIGNED_LABEL: "Met"
- SMILES_STRING: "COC(=O)N1CC[C@]23c4c5ccc(O)c4O[C@H]2[C@@H](O)C=C[C@H]3[C@H]1C5"
  ASSIGNED_LABEL: "Met"
- SMILES_STRING: "Oc1ccc2c3c1O[C@H]1c4[nH]c5ccccc5c4C[C@@]4(O)[C@@H](C2)N(CC2CC2)CC[C@]314"
  ASSIGNED_LABEL: "Met"
- SMILES_STRING: "COC(=O)N1CC[C@]23c4c5ccc(OC(C)=O)c4O[C@H]2[C@@H](OC(C)=O)C=C[C@H]3[C@H]1C5"
  ASSIGNED_LABEL: "Not met"
- SMILES_STRING: "COC(=O)N1CC[C@]23c4c5ccc(OC(C)=O)c4O[C@H]2[C@@H](OC(C)=O)[C@H](O)C(=O)[C@H]3[C@H]1C5"
  ASSIGNED_LABEL: "Met"
- SMILES_STRING: "COC(=O)N1CC[C@]23c4c5ccc(OC)c4O[C@H]2[C@@H](OC)C=C[C@H]3[C@H]1C5"
  ASSIGNED_LABEL: "Not met"
